# measurement-notes: Toxicity liver stage against HepG2, at 10uM
# Format: cell-based
# Design: test concentration 10 uM, cell line HepG2-A16-CD81EGFP
# experimental-conditions: human, HepG2-A16-CD81EGFP cells; read-out: INHIBITION
cytotoxicity at 10 µM by entry:
Provide only the numeric value, understood in %.

Illustrative cases are given below, each with its answer.
Quick check: cytotoxicity at 10 µM of "N#Cc1cccnc1OC1CCN(C(=O)c2cc(C3CC3)on2)CC1" ?
0.253

Try "CCOC[C@]12COC[C@H]1CN(Cc1ccc3c(c1)OCO3)C2" next.
-119

Try c1ccc(N2CCOC(Cc3cccnc3)C2)cc1 (configuration not stated) next.
-26.3

Try "COc1ccc(C)nc1NC(=O)CCc1c(C)nn(C)c1C" next.
0.918

Try "CCN(CC)c1nc(C)cc(C(=O)Nc2cnn(CC)c2)n1" next.
-16.4

Continuing:
Quick check: cytotoxicity at 10 µM of "O=C(NCCc1ccc(Cl)cc1)c1coc(CN2CCOCC2)c1" ?
0.383

Try "Cc1cc(C2CCC2)nc(NCC(C)(C)CO)n1" next.
-2.56

----------
cytotoxicity at 10 µM by entry:
# measurement-notes: Toxicity liver stage against HepG2, at 10uM
# Type: cell-based
# Design: test concentration 10 uM, cell line HepG2-A16-CD81EGFP
# experimental-conditions: human, HepG2-A16-CD81EGFP cells; read-out: INHIBITION
Provide only the numeric value, understood in %.

Illustrative cases are given below, each with its answer.
Quick check: cytotoxicity at 10 µM of "O=C(Nc1ccccc1)N1CCN(Cc2noc(C3CC3)n2)CC1" ?
2.82

Try CNc1cc(C)nc(C2CN(Cc3ccc(C)nc3)CCO2)c1 (stereo unspecified) next.
-2.29

Try "CN(Cc1nc(C(F)(F)F)cs1)C(=O)CCc1cccnc1" next.
9.75

Try "Cc1cc(C(=O)N(CC(=O)O)CC(C)C)ccc1F" next.
-6.07

Try COCC(=O)NC1CC2(CCN(CCO)CC2)c2ccccc21 (stereo unspecified) next.
-109

Try "O=C(c1cccc(CNS(=O)(=O)c2ccc(F)cc2)c1)N1CCCC1" next.
-8.57

Try "Cn1ccc(CN2CCC(Oc3ccccc3)CC2)cc1=O" next.
-3.71

Try Cc1cc(C)c(CNC(=O)NC2COc3ccccc3C2)c(=O)[nH]1 (stereo unspecified) next.
-13.8

Try "COc1ccc2c(c1)CN(Cc1nc3c(cnn3C)c(=O)[nH]1)CC2" next.
-8.57

Try O=C1CC(c2cccnc2)c2c(c(C(=O)O)cn2-c2cccc(F)c2)N1 (stereo unspecified) next.
-0.585

Consider now this further compound.
Quick check: cytotoxicity at 10 µM of "COc1ccccc1-c1nnc([C@H]2CCN(C(=O)C3CC3)C2)o1" ?
0.734

----------
cytotoxicity at 10 µM by entry:
# measurement-notes: Toxicity liver stage against HepG2, at 10uM
# Type: cell-based
# Design: test concentration 10 uM, cell line HepG2-A16-CD81EGFP
# experimental-conditions: human, HepG2-A16-CD81EGFP cells; read-out: INHIBITION
Provide only the numeric value, understood in %.

Illustrative cases are given below, each with its answer.
Quick check: cytotoxicity at 10 µM of "CNCC(=O)N1CCC(c2cccc(Oc3ccccc3)n2)CC1" ?
-11.7

Try "CO[C@H]1C[C@@H](O)C12CCN(Cc1nc(C(F)(F)F)no1)CC2" next.
-4.7

Try O=C(CC1COCCN1)NCCc1nc(-c2ccccn2)no1 (stereo unspecified) next.
-0.849

Continuing:
Quick check: cytotoxicity at 10 µM of "Cc1nonc1CN(C)Cc1cnn(-c2ccc(F)cc2)c1" ?
-16.3

Try O=C(Cc1ccsc1)N1CCOC(c2nc(-c3ncccn3)no2)C1 (stereo unspecified) next.
-7.83

Try "Cc1ccsc1C(=O)N1CCC(Nc2cccnc2)CC1" next.
-136

Try CN1CC2(CCCN(c3cc(N4CCCCC4)ncn3)C2)OC1=O (stereo unspecified) next.
-39.7

Try "CN1CCC(Cc2noc(-c3cccc4c3OCC4)n2)CC1" next.
-4.71

Try "N#Cc1ccccc1NC(=O)C1CN(C(=O)c2ccc3c(c2)OCO3)C1" next.
-8.64

Try Cn1c(CN2CCCC(Cn3cc(CCO)nn3)C2)cc2ccccc21 (stereo unspecified) next.
-0.849

Try "CCCc1cncnc1N1CCC2(CCC(=O)N(C3CCCC3)C2)CC1" next.
2.61

----------
# measurement-notes: Toxicity liver stage against HepG2, at 10uM
# Type: cell-based
# Set-up: test concentration 10 uM, cell line HepG2-A16-CD81EGFP
# experimental-conditions: human, HepG2-A16-CD81EGFP cells; read-out: INHIBITION
attribute-measured: cytotoxicity at 10 µM (%)
Provide only the numeric value, understood in %.

Quick check: cytotoxicity at 10 µM of Cc1nc(C)n(C2CCCN(C(=O)c3csc(C(C)C)n3)C2)n1 (stereo unspecified) ?
-1.72

Continuing:
Quick check: cytotoxicity at 10 µM of "O=C(c1ccnnc1)N1CCO[C@H]2[C@@H](OCc3cccnc3)CC[C@@H]21" ?
2.93

Try "COc1cccc(-c2cc(C(=O)NCCCC(F)(F)F)[nH]n2)c1" next.
-13.9

----------
cytotoxicity at 10 µM by entry:
# measurement-notes: Toxicity liver stage against HepG2, at 10uM
# Type: cell-based
# Set-up: test concentration 10 uM, cell line HepG2-A16-CD81EGFP
# experimental-conditions: human, HepG2-A16-CD81EGFP cells; read-out: INHIBITION
Provide only the numeric value, understood in %.

Illustrative cases are given below, each with its answer.
Quick check: cytotoxicity at 10 µM of "CCCS(=O)(=O)N(C)C(=O)CCc1ccccc1" ?
4.83

Try "CN(C)C(=O)c1ccc(NCCNc2ccc3ccccc3n2)nc1" next.
4.63

Try "Cn1ccnc1CN1CCN(Cc2cc(-c3ccccc3)no2)CC1" next.
-15.5

Try CC(=O)NCc1ccc(C(=O)N2CCCC2c2cnn(C)c2)s1 (configuration not stated) next.
-13.6

Try CN(Cc1ccccc1)CC(O)Cn1cnc2cc(F)ccc2c1=O (configuration not stated) next.
-5.28

Continuing:
Quick check: cytotoxicity at 10 µM of Cc1cccc(COc2ccc(C(C)N)cc2)c1 (configuration not stated) ?
-1.79

Try "CCOC(=O)Cn1nnnc1-c1ccccc1" next.
0.363

Try CN1C(=O)CC(c2cnn(C)c2)C12CCN(C(=O)c1ccc[nH]1)CC2 (configuration not stated) next.
6.74

Try CC(C)S(=O)(=O)N1CCC(Cc2cccc(C(=O)O)c2)C1 (configuration not stated) next.
1.31

Try COCC(=O)N1C[C@H]2CCCC(OCc3cccnc3)[C@H]2C1 (some centres not stated) next.
-5.67

Try "c1ccc2c(c1)CN(c1ncnc3c1CCNC3)CCO2" next.
3.13

Try CC(O)CNCc1ccc(OCc2ccc3c(c2)OCCO3)cc1 (configuration not stated) next.
-4.61

----------
cytotoxicity at 10 µM by entry:
# measurement-notes: Toxicity liver stage against HepG2, at 10uM
# Format: cell-based
# Set-up: test concentration 10 uM, cell line HepG2-A16-CD81EGFP
# experimental-conditions: human, HepG2-A16-CD81EGFP cells; read-out: INHIBITION

Illustrative cases are given below, each with its answer.
Quick check: cytotoxicity at 10 µM of CN1CCC(CNC(=O)c2cccc(CN3CCCCCC3)c2)C1 (stereo unspecified) ?
-5.39%

Try "O=C(CN1CCCCC1)NCc1cccnc1-n1cnc2ccccc21" next.
0.522%

Try "O=C(NCCCN1CCOCC1)c1ccc(-c2ccccc2)[nH]c1=O" next.
-2.48%

Continuing:
Quick check: cytotoxicity at 10 µM of O=C(CN(Cc1cccnc1)CC1CCCO1)Nc1ccc(F)cc1 (stereo unspecified) ?
-10.7%

Try "O=C(NCCc1cccs1)[C@]12COC[C@H]1CN(Cc1ccccn1)C2" next.
-105%

Try Cc1nn(C)c(Cl)c1C1CCCN1c1ncnc2sccc12 (stereo unspecified) next.
20.8%

----------
# measurement-notes: Toxicity liver stage against HepG2, at 10uM
# Type: cell-based
# Set-up: test concentration 10 uM, cell line HepG2-A16-CD81EGFP
# experimental-conditions: human, HepG2-A16-CD81EGFP cells; read-out: INHIBITION
cytotoxicity at 10 µM by entry:
Provide only the numeric value, understood in %.

Quick check: cytotoxicity at 10 µM of "Cc1[nH]c(-c2ccccc2)nc1C(=O)N1CC[C@H](CO)[C@@H](O)C1" ?
76.5

Try COc1ccc(CN2CCC(c3cc(O)nc(C)n3)C2)c(OC)c1 (centres undefined) next.
-5.77

Continuing:
Quick check: cytotoxicity at 10 µM of "c1ccc(CN2CCc3ncnc(-c4ccncc4)c3CC2)nc1" ?
-73.1

Try CSc1ccc(OCCN2CCNC(=O)C2C)cc1 (centres undefined) next.
8.57

Try O=C1NCC2(CCCN(Cc3ccc(F)cc3)C2)Oc2ccccc21 (centres undefined) next.
-12.8

Try "COCCO[C@@H]1C[C@H]2CN(C(=O)c3ccc(C)nc3)CCN2C1" next.
-2.2

Try "Cc1nnc2n1CCN(C(=O)c1cnc3c(cnn3CC(C)C)c1)C2" next.
-8.72
